Test system: THRa homodimer (NR concentration 90 nM)
Experiment: PBM binding z-score (relative to random genomic background probes); higher = stronger binding; sequences stand for … in GC…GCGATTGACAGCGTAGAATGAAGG
Entries and their PBM binding z-score
value.kind: PBM binding z-score

{"biosequence": "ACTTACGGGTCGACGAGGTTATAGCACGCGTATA", "reported": 0.75}
{"biosequence": "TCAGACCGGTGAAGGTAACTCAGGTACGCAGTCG", "reported": -0.0547}
{"biosequence": "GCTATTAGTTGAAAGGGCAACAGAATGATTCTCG", "reported": -0.526}
{"biosequence": "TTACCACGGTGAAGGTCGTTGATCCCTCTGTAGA", "reported": 0.375}
{"biosequence": "ATCTCTAGGTTAGACTCAGTTCAGTGAAGAACGC", "reported": 1.21}
{"biosequence": "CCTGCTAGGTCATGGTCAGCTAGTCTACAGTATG", "reported": 1.25}
{"biosequence": "GCTTGTAGATCAAGCTTAAGAAAGACTAAGCTAA", "reported": -1.48}
{"biosequence": "CCAGGCAGGTGAAAGGTAACTCAGTCTGGTACGC", "reported": -0.15}
{"biosequence": "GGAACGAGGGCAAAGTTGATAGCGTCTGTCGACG", "reported": -0.194}
{"biosequence": "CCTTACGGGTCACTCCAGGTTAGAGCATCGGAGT", "reported": 0.277}
{"biosequence": "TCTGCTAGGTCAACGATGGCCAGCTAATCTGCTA", "reported": 0.486}
{"biosequence": "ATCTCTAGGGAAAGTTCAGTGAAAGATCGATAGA", "reported": 0.0589}

----------
System: PPARa:RXRa (NR concentration 270 nM, RXRa partner concentration 90 nM)
Assay: PBM binding z-score (relative to random genomic background probes); higher = stronger binding; sequences stand for … in GC…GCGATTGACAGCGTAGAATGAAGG
Examples of sequences with documented PBM binding z-score follow.

{"biosequence": "CGTCAAAGTTCAACTAAGGTATCGTAAAGCACGC", "PBM binding z-score": 5.15}
{"biosequence": "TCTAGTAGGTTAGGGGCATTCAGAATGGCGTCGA", "PBM binding z-score": 1.94}
{"biosequence": "ATATGTAGGTTGCATCCGGGTCATTCAGGCTATG", "PBM binding z-score": 2.76}
{"biosequence": "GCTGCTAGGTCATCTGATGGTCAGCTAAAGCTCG", "PBM binding z-score": 3.39}
{"biosequence": "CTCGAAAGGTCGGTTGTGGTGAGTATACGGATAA", "PBM binding z-score": 2.29}
{"biosequence": "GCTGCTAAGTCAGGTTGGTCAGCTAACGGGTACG", "PBM binding z-score": -0.794}
{"biosequence": "CCTACTGGGCCTAGGTCATTGATCAGTCAAAGCA", "PBM binding z-score": 1.77}
{"biosequence": "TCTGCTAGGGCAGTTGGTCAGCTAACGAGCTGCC", "PBM binding z-score": -0.359}
{"biosequence": "ATCTCTAGGTAACAAGTTCAATGAAAGAGAGGAC", "PBM binding z-score": 2.44}
{"biosequence": "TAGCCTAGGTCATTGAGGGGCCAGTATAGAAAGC", "PBM binding z-score": 3.67}
{"biosequence": "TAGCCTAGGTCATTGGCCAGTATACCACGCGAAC", "PBM binding z-score": 3.41}
{"biosequence": "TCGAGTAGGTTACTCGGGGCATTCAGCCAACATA", "PBM binding z-score": 1.13}
